Origin of the recorded values: patent US4154830A

Here's a batch of molecules along with measured MIC for Salmonella typhi Watson.
TEST_READOUT: MIC (µg/mL)

| MOLECULE | TEST_READOUT | REPORTED |
| --- | --- | --- |
| Cn1nnnc1SCC1=C(C(=O)O)N2C(=O)C(NC(=O)CS/C=C\C#N)C2SC1 (stereo not shown) | MIC | 0.07 |
| Cn1nnnc1SCC1=C(C(=O)O)N2C(=O)C(NC(=O)[C@H](O)c3ccccc3)[C@H]2SC1 (stereo partly shown) [Cefamandole, reference compound] | MIC | 0.6 |
| Cn1nnnc1SCC1=C(C(=O)O)N2C(=O)C(NC(=O)CS/C=C/C(N)=O)C2SC1 (stereo not shown) | MIC | 0.2 |
| N#C/C=C\SCC(=O)NC1C(=O)N2C(C(=O)O)=C(CSc3nncs3)CSC12 (stereo not shown) | MIC | 0.2 |

====

Here's a batch of compounds along with measured MIC for Klebsiella pneumoniae ATCC 10031.

| COMPOUND | ASSAYED_TARGET | MIC, µg/mL |
| --- | --- | --- |
| Cc1nnc(SCC2=C(C(=O)O)N3C(=O)[C@@H](NC(=O)Cn4cnnn4)[C@H]3SC2)s1 [Cefazolin, reference compound] | Klebsiella pneumoniae ATCC 10031 | 0.8 |
| Cn1nnnc1SCC1=C(C(=O)O)N2C(=O)C(NC(=O)CSCC#N)C2SC1 (centres unmarked) [K 10299, reference compound] | Klebsiella pneumoniae ATCC 10031 | 0.2 |
| Cn1nnnc1SCC1=C(C(=O)O)N2C(=O)C(NC(=O)CS/C=C/C(N)=O)C2SC1 (centres unmarked) | Klebsiella pneumoniae ATCC 10031 | 0.15 |
| Cc1nnc(SCC2=C(C(=O)O)N3C(=O)C(NC(=O)CSCC#N)C3SC2)s1 (centres unmarked) [K 9227, reference compound] | Klebsiella pneumoniae ATCC 10031 | 0.4 |
| Cn1nnnc1SCC1=C(C(=O)O)N2C(=O)C(NC(=O)CS/C=C\C(N)=O)C2SC1 (centres unmarked) | Klebsiella pneumoniae ATCC 10031 | 0.2 |
| N#C/C=C\SCC(=O)NC1C(=O)N2C(C(=O)O)=C(CSc3nncs3)CSC12 (centres unmarked) | Klebsiella pneumoniae ATCC 10031 | 0.2 |
| Cn1nnnc1SCC1=C(C(=O)O)N2C(=O)C(NC(=O)[C@H](O)c3ccccc3)[C@H]2SC1 (some centres unmarked) [Cefamandole, reference compound] | Klebsiella pneumoniae ATCC 10031 | 0.15 |
| Cn1nnnc1SCC1=C(C(=O)O)N2C(=O)C(NC(=O)CS/C=C\C#N)C2SC1 (centres unmarked) | Klebsiella pneumoniae ATCC 10031 | 0.1 |

====

Tested on: Escherichia coli G
TEST_PROTOCOL: minimal inhibiting concentration (MIC), Gram-negative bacteria
Assay type: cell-based
MEASUREMENT_SETUP: Escherichia coli G; read-out: MIC
TEST_READOUT: log10 MIC (log10 of the value in µg/mL)

| COMPOUND | log10 MIC |
| --- | --- |
| N#C/C=C\SCC(=O)NC1C(=O)N2C(C(=O)O)=C(CSc3nncs3)CSC12 (stereo not shown) | -0.24 |
| Cn1nnnc1SCC1=C(C(=O)O)N2C(=O)C(NC(=O)CS/C=C\C(N)=O)C2SC1 (stereo not shown) | -0.10 |
| Cn1nnnc1SCC1=C(C(=O)O)N2C(=O)C(NC(=O)CS/C=C\C#N)C2SC1 (stereo not shown) | -0.85 |
| Cc1nnc(SCC2=C(C(=O)O)N3C(=O)[C@@H](NC(=O)Cn4cnnn4)[C@H]3SC2)s1 [Cefazolin, reference compound] | 0.20 |
| Cn1nnnc1SCC1=C(C(=O)O)N2C(=O)C(NC(=O)CSCC#N)C2SC1 (stereo not shown) [K 10299, reference compound] | -0.10 |
| Cn1nnnc1SCC1=C(C(=O)O)N2C(=O)C(NC(=O)CS/C=C/C(N)=O)C2SC1 (stereo not shown) | -0.40 |
| Cc1nnc(SCC2=C(C(=O)O)N3C(=O)C(NC(=O)CSCC#N)C3SC2)s1 (stereo not shown) [K 9227, reference compound] | 0.49 |

====

Here's a batch of compounds along with measured MIC for Streptococcus β-haemolyticus C203.
TEST_READOUT: MIC (µg/mL)

| COMPOUND | TEST_READOUT | QUALIFIER_OPERATOR | REPORTED |
| --- | --- | --- | --- |
| Cc1nnc(SCC2=C(C(=O)O)N3C(=O)C(NC(=O)CSCC#N)C3SC2)s1 (centres unmarked) [K 9227, reference compound] | MIC | = | 0.025 |
| Cc1nnc(SCC2=C(C(=O)O)N3C(=O)[C@@H](NC(=O)Cn4cnnn4)[C@H]3SC2)s1 [Cefazolin, reference compound] | MIC | = | 0.05 |
| Cn1nnnc1SCC1=C(C(=O)O)N2C(=O)C(NC(=O)CS/C=C\C#N)C2SC1 (centres unmarked) [K 13101] | MIC | = | 0.012 |
| Cn1nnnc1SCC1=C(C(=O)O)N2C(=O)C(NC(=O)CS/C=C\C(N)=O)C2SC1 (centres unmarked) [K 13031] | MIC | < | 0.012 |
| Cn1nnnc1SCC1=C(C(=O)O)N2C(=O)C(NC(=O)CSCC#N)C2SC1 (centres unmarked) [K 10299, reference compound] | MIC | = | 0.037 |
| Cn1nnnc1SCC1=C(C(=O)O)N2C(=O)C(NC(=O)[C@H](O)c3ccccc3)[C@H]2SC1 (some centres unmarked) [Cefamandole, reference compound] | MIC | = | 0.019 |
| Cn1nnnc1SCC1=C(C(=O)O)N2C(=O)C(NC(=O)CS/C=C/C(N)=O)C2SC1 (centres unmarked) [K 11457] | MIC | = | 0.025 |
| N#C/C=C\SCC(=O)NC1C(=O)N2C(C(=O)O)=C(CSc3nncs3)CSC12 (centres unmarked) [K 13107] | MIC | < | 0.006 |

====

Here's a batch of molecules along with measured MIC for Shigella sonnei ATCC11060.
TEST_READOUT: MIC (µg/mL)

| MOLECULE | REPORTED |
| --- | --- |
| Cn1nnnc1SCC1=C(C(=O)O)N2C(=O)C(NC(=O)CS/C=C\C#N)C2SC1 (centres unmarked) | 0.8 |
| Cn1nnnc1SCC1=C(C(=O)O)N2C(=O)C(NC(=O)CSCC#N)C2SC1 (centres unmarked) [K 10299, reference compound] | 1.6 |
| Cn1nnnc1SCC1=C(C(=O)O)N2C(=O)C(NC(=O)[C@H](O)c3ccccc3)[C@H]2SC1 (some centres unmarked) [Cefamandole, reference compound] | 2.35 |
| Cn1nnnc1SCC1=C(C(=O)O)N2C(=O)C(NC(=O)CS/C=C\C(N)=O)C2SC1 (centres unmarked) | 0.3 |
| Cc1nnc(SCC2=C(C(=O)O)N3C(=O)[C@@H](NC(=O)Cn4cnnn4)[C@H]3SC2)s1 [Cefazolin, reference compound] | 1.6 |
| Cc1nnc(SCC2=C(C(=O)O)N3C(=O)C(NC(=O)CSCC#N)C3SC2)s1 (centres unmarked) [K 9227, reference compound] | 1.6 |
| Cn1nnnc1SCC1=C(C(=O)O)N2C(=O)C(NC(=O)CS/C=C/C(N)=O)C2SC1 (centres unmarked) | 1.6 |
| N#C/C=C\SCC(=O)NC1C(=O)N2C(C(=O)O)=C(CSc3nncs3)CSC12 (centres unmarked) | 1.6 |

====

Test system: Diplococcus aureus 39/2
TEST_PROTOCOL: minimal inhibiting concentration (MIC), Gram-positive bacteria
Type: cell-based
TEST_READOUT: MIC (µg/mL)

| MOLECULE | TEST_READOUT | REPORTED |
| --- | --- | --- |
| Cn1nnnc1SCC1=C(C(=O)O)N2C(=O)C(NC(=O)CS/C=C\C#N)C2SC1 (centres unmarked) | MIC | 0.14 |
| Cc1nnc(SCC2=C(C(=O)O)N3C(=O)[C@@H](NC(=O)Cn4cnnn4)[C@H]3SC2)s1 [Cefazolin, reference compound] | MIC | 0.6 |
| Cn1nnnc1SCC1=C(C(=O)O)N2C(=O)C(NC(=O)CSCC#N)C2SC1 (centres unmarked) [K 10299, reference compound] | MIC | 0.4 |
| Cn1nnnc1SCC1=C(C(=O)O)N2C(=O)C(NC(=O)CS/C=C\C(N)=O)C2SC1 (centres unmarked) | MIC | 0.2 |
| Cn1nnnc1SCC1=C(C(=O)O)N2C(=O)C(NC(=O)CS/C=C/C(N)=O)C2SC1 (centres unmarked) | MIC | 0.4 |
| Cc1nnc(SCC2=C(C(=O)O)N3C(=O)C(NC(=O)CSCC#N)C3SC2)s1 (centres unmarked) [K 9227, reference compound] | MIC | 0.2 |
| Cn1nnnc1SCC1=C(C(=O)O)N2C(=O)C(NC(=O)[C@H](O)c3ccccc3)[C@H]2SC1 (some centres unmarked) [Cefamandole, reference compound] | MIC | 1.2 |
| N#C/C=C\SCC(=O)NC1C(=O)N2C(C(=O)O)=C(CSc3nncs3)CSC12 (centres unmarked) | MIC | 0.14 |
